- Target system: Rap guanine nucleotide exchange factor 4 (Homo sapiens)
- Test summary: Confirmatory qHTS for antagonist of cAMP-regulated guanine nucleotide exchange factor 4 (EPAC2) (AID 1645885); further: nearly all actives have a fitted effect of over 25% in size
- Condition notes: EPAC2 Rap1B-BODIPY-GDP exchange fluorescence, biochemical; series mostly up to 12.7 µM
Records with an inconclusive call do not appear. The source made the active and inactive calls. The call rests on the fitted dose curve; in most records, active means well fitted inhibition curve with a large enough effect; inconclusive means small, poorly fitted or top-dose-only effect; inactive means no such curve, though single readings can be large or run the other way.
The reply should be one of these categories: active, inactive

Observe how each entry below is paired with its result.
Which outcome was assigned to `CC(C)(C)C(=O)NCc1ccc(C(=O)CN2C(=O)NC3(CCCC3)C2=O)s1` in this test?
inactive

One more compound: `C=CCOc1ccc(/C=C2\SC(=S)N(NS(=O)(=O)c3ccccc3)C2=O)cc1`
active

Continue with the next compound.
Which outcome was assigned to `NS(=O)(=O)c1ccc(NC(=O)Cc2c(F)cccc2Cl)cc1` in this test?
inactive

---

- Target system: Rap guanine nucleotide exchange factor 3 (Homo sapiens)
- Test summary: Confirmatory qHTS for antagonist of cAMP-regulated guanine nucleotide exchange factor 3 (EPAC1) (AID 1645880); further: nearly all actives have a fitted effect of over 55% in size
- Condition notes: EPAC1 Rap1B-BODIPY-GDP exchange, fluorescence; series mostly up to 115 µM
Results filed as inconclusive are left out. The source made the active and inactive calls. The call rests on the fitted dose curve; in most records, active means well fitted inhibition curve with a large enough effect; inconclusive means small, poorly fitted or top-dose-only effect; inactive means no such curve, though single readings can be large or run the other way.
The reply should be one of these categories: active, inactive

Observe how each entry below is paired with its result.
Which outcome was assigned to `COc1cc(Nc2cc(C)nc3ncnn23)cc(OC)c1` in this test?
inactive

One more compound: `C=CCc1ccccc1Oc1cc(OC)nc(N)n1`
inactive

One more compound: `CC[C@H]1c2[nH]c3ccc(C(C)C)cc3c2[C@@H]2CCN3C(=O)CCC[C@H]1[C@H]23`
inactive

One more compound: `CCOC(=O)c1[nH]c(C)c(C(=O)NC(C)(C)C)c1C`
inactive

Others:
Which outcome was assigned to `Cc1ccc(NC(=O)N2CCN(c3nnc(C)c4c(C)n(-c5ccc(Cl)cc5)nc34)CC2)c(C)c1` in this test?
inactive

One more compound: `CC(=O)C[C@H]1SC[C@@H](C(C)C)N1S(=O)(=O)c1ccc(C)cc1`
inactive

One more compound: `COc1cc(C(=O)N(Cc2cc3ccc(C)cc3nc2N(C)C)C2CC2)cc(OC)c1OC`
inactive

One more compound: `Cc1cc(N)c2cc(NC(=O)/C=C/c3ccccc3Cl)ccc2n1`
active

One more compound: `COc1cccc(CNC(=O)CCCn2nc(C)c3c(C)n(-c4ccc(C)cc4)nc3c2=O)c1OC`
inactive

One more compound: `COc1ccc2oc(C(=O)N(C)CCOc3ccc(Cl)cc3)c(C)c2c1`
inactive

---

- Target system: Cytochrome P450 3A4 (Homo sapiens)
- Test summary: qHTS Assay for Inhibitors and Substrates of Cytochrome P450 3A4 (AID 884); further: nearly all actives have a fitted effect of over 50% in size
- Condition notes: recombinant CYP3A4, Luciferin-PPXE luminescence; series mostly up to 57.1 µM
- Procedure: NIH Molecular Libraries Screening Centers Network [MLSCN] NIH Chemical Genomics Center [NCGC] The P450 gene superfamily is involved in the metabolism and clearance of xenobiotics. […] The luciferin is then measured by luminescence after the addition of a luciferase detection reagent. […] Inhibitors and some substrates limit the production of luciferin, and decrease measured luminescence. […]
Records with an inconclusive call do not appear. Activity calls are given as the source filed them. Calls follow the shape of the dose curve; as a rule, active = well fitted inhibition curve with a large enough effect; inconclusive = small, poorly fitted or top-dose-only effect; inactive = no such curve, though single readings can be large or run the other way.
The reply should be one of these categories: yes (1) for active, no (0) for inactive

Observe how each entry below is paired with its result.
Which outcome was assigned to `CN(C)c1ccc(-c2nccc(NCc3ccccc3)n2)cc1` in this test?
yes (1)

One more compound: CC(=O)N[C@@H]1C(O)OC(CO)C(O)C1O (stereo not given in full)
no (0)

One more compound: O=c1c2ccccc2oc2cc(O)c(C3COCC(CO)C(O)C(O)C3O)c(O)c12 (stereo not given)
no (0)

One more compound: CC1(C)S[C@H]2C(NC(=O)[C@@H](N)c3ccc(O)cc3)C(=O)N2[C@@H]1C(=O)O (stereo not given in full)
no (0)

One more compound: `CC(=O)Oc1cc(-c2coc3cc(OC(C)=O)c(OC(C)=O)c(OC(C)=O)c3c2=O)cc(OC(C)=O)c1OC(C)=O`
no (0)

Others:
Which outcome was assigned to `Cn1c(=O)[nH]c2nc[nH]c2c1=O` in this test?
no (0)

One more compound: O=C(O)C1OC(O)C(O)C(O)C1O (stereo not given)
no (0)

One more compound: Nc1ncnc2c1ncn2C1OC(COP(=O)(O)O)C(O)C1O (stereo not given)
no (0)

One more compound: CC1C(O)CC2C(C(=O)O)=CO[C@@H](O[C@H]3OC(CO)C(O)C(O)C3O)C21 (stereo not given in full)
no (0)

One more compound: `NC(=O)NCCC[C@H](N)C(=O)O`
no (0)

One more compound: CC(=O)O[C@@]1(C(C)=O)CCC2C3C=C(Cl)C4=CC(=O)CC[C@]4(C)C3CC[C@]21C (stereo not given in full)
no (0)

One more compound: C=C(C)C1Cc2c(ccc(C(=O)O)c2O)O1 (stereo not given)
no (0)

One more compound: O=C(O)C(O)[C@@](O)(Cc1ccc(O)cc1)C(=O)O (stereo not given in full)
no (0)

One more compound: `Cc1onc(-c2c(Cl)cccc2Cl)c1C(=O)N[C@H]1C(=O)N2[C@H]1SC(C)(C)[C@H]2C(=O)O`
no (0)
